# System: HeLa cells
# Test: Cell viability / cytotoxicity on HeLa cells
# Type: cell-based
# Condition Label: HeLa CC50 / antiviral EC50
# Description: Cell viability in the presence of the compounds has been determined by standard MTT assays. Selected compounds from Table 1 were tested against the cervical cancer HeLa cell line for antiproliferative activity. Cell viability was measured with the CellTiter viability assay (Table 2). Table 3 lists the calculated antiproliferative potencies (EC50, dose required to suppress 50% of cell viability) for a series of representative compounds of the invention.
Measured Selectivity index HeLa, CC50/EC50 accompanies every entry in the list below.
Please state the value as a number alone, without comment.

These solved cases illustrate the format of a correct answer.
1. Oc1ccccc1/C=N/Nc1nc(Nc2ccc(F)cc2)nc(N2CCOCC2)n1 [Compound 16c] = 1.0
2. Oc1ccccc1/C=N/Nc1nc(Nc2ccc(F)cc2)nc(Nc2ccc(F)cc2)n1 = 10
3. O=C(CCN1C(=O)/C(=C/c2cccc(Br)c2)SC1=S)Nc1ccccc1O = 2.4

Moving on to the next compound.
Query string: Supply reported Selectivity index HeLa, CC50/EC50 belonging to this compound: O=C(CCN1C(=O)/C(=C/c2cccc(F)c2)SC1=S)Nc1ccccc1O [Compound 35b]
Result string: 6.7
